The reported numbers originate from the supplement of paper PMC7125110.

B1: glmS ribozyme (parent)
chain: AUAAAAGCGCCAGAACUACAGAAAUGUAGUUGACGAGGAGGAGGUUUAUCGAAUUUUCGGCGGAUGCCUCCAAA

variants of: B1; experiment: self-cleavage kobs at 640 uM GlcN6P; higher = faster cleavage; RNA array; conditions: with glucosamine-6-phosphate
This sample holds only a part of the variants without activity.
Attribute Measured: self-cleavage kobs at 640 uM GlcN6P

As a guide, the following entries are already answered.
G60C C67G: < 1e-05 s⁻¹
U57A C70G: 4.96e-05 s⁻¹
A15C U56G: 0.000276 s⁻¹
G32U A33C: < 1e-05 s⁻¹

Input line: Please look up its self-cleavage kobs at 640 uM GlcN6P: C10U A39U G41U
Output line: < 1e-05 s⁻¹

Input line: Cool, now G40A A42U A48U
Output line: < 1e-05 s⁻¹
